assay: Half life in orally and iv dosed rat; assay type: ADME, organism-based; conditions: in vivo
Each item that follows carries a reported half-life.

Cc1noc(/C(=C/c2cccc(-c3cc(C(C)(C)S(C)(=O)=O)cc4cccnc34)c2)c2ccc(S(C)(=O)=O)cc2)n1 :: 4 h
O=C(NC1CC1)c1cn(-c2cccc(C#Cc3ccc[n+]([O-])c3)c2)c2ncccc2c1=O :: 2 h
CC(C)(O)c1ccc(-c2cccc(-n3cc(C(=O)NC4CC4)c(=O)c4cccnc43)c2)cn1 :: < 0.5 h

Kindly consider the entry below.
Returns the measured half-life for the input molecule. Input: CC(C)(O)c1ccc(-c2cccc(-n3cc(C(=O)NC4CC4)c(=O)c4cccnc43)c2)c[n+]1[O-]
1.5 h
